- experimental-target: Protein mono-ADP-ribosyltransferase PARP3 (Homo sapiens) (UniProt Q9Y6F1)
- Sequence (Q9Y6F1 whole entry): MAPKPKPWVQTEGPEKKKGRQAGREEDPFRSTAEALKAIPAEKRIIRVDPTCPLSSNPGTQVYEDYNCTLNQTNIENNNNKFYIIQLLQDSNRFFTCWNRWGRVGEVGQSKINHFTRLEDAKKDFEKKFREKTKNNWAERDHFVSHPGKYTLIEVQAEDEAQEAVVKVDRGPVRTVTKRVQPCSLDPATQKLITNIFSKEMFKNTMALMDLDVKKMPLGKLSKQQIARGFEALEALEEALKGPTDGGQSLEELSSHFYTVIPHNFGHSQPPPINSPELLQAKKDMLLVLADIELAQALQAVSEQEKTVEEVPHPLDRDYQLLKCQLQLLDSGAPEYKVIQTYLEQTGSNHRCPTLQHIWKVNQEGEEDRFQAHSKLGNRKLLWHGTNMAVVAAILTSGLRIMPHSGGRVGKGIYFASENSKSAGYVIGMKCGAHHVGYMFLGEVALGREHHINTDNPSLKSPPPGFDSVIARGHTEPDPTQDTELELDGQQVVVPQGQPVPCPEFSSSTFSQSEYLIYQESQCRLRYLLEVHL
measurement-label: ΔTm (°C)
Enter your answer as a number in °C; do not include the unit.

Below are worked cases with known answers.
compound: C[C@H](NC(=O)CCc1nc2ccccc2c(=O)[nH]1)c1cccc(F)c1
ΔTm (°C): 0.75
//
compound: CCC(=O)[C@H](Cc1ccccc1)NC(=O)CCc1nc2ccccc2c(=O)[nH]1
ΔTm (°C): 5.71
//
compound: C[C@@H](NC(=O)CCCc1nc2ccccc2c(=O)[nH]1)c1ccccc1
ΔTm (°C): 4.27
//
compound: O=C(CCc1nc2ccccc2c(=O)[nH]1)NCc1ccc(OC(F)F)cc1
ΔTm (°C): 0.78
//
compound: O=C(CCCc1nc2ccccc2c(=O)[nH]1)N[C@H]1CCc2ccccc21
ΔTm (°C): 4.69

Task item: Can you look up the measured ΔTm of O=C(CCc1nc2cc(Cl)ccc2c(=O)[nH]1)N[C@H](CO)c1ccccc1 for me?
Reply: 0.5

Task item: Same lookup for O=C(CCc1nc2ccccc2c(=O)[nH]1)N[C@H](CO)c1ccccc1 , please.
Reply: 3.57

Task item: Same lookup for CC(NC(=O)CCc1nc2ccccc2c(=O)[nH]1)c1ccncc1 (racemic) , please.
Reply: 5.02

Task item: Same lookup for CON(C)C(=O)[C@H](Cc1ccccc1)NC(=O)CCc1nc2ccccc2c(=O)[nH]1 , please.
Reply: 5.94

Task item: Same lookup for C[C@H](NC(=O)CCCc1nc2ccccc2c(=O)[nH]1)c1ccccc1 , please.
Reply: 4.58

---

Measurement record for Protein mono-ADP-ribosyltransferase PARP3 (Homo sapiens); quantity recorded: ΔTm.
Enter your answer as a number in °C; do not include the unit.

Below are worked cases with known answers.
compound: O=C(CCc1nc2ccccc2c(=O)[nH]1)NCc1ccc([N+](=O)[O-])cc1
ΔTm / °C: 3.29

compound: C[C@H](NC(=O)CCc1nc2ccccc2c(=O)[nH]1)c1ccc(Cl)cc1
ΔTm / °C: 0.12

compound: C[C@H](NC(=O)CCc1nc2ccccc2c(=O)[nH]1)c1ccccc1F
ΔTm / °C: 0.42

compound: C[C@@H](NC(=O)CCc1nc2cc(Cl)ccc2c(=O)[nH]1)c1ccccc1
ΔTm / °C: 0.16

compound: O=C(CCc1nc2ccccc2c(=O)[nH]1)NC(c1ccccc1)c1ccccc1
ΔTm / °C: 0.2

Task item: Can you look up the measured ΔTm of Cc1ccc(C)c(C(C)NC(=O)CCc2nc3ccccc3c(=O)[nH]2)c1 (racemic) for me?
Reply: 3.07

Task item: Same lookup for O=C(CCc1nc(O)c2ccccc2n1)NCc1ccccn1 , please.
Reply: 4.83

Task item: Same lookup for O=C(CCc1nc2ccccc2c(=O)[nH]1)NCc1ccc(F)cc1 , please.
Reply: 4.2

Task item: Same lookup for C[C@H](NC(=O)/C=C/c1nc2ccccc2c(=O)[nH]1)c1ccccc1 , please.
Reply: 0.22

Task item: Same lookup for Cc1ccc([C@H](C)NC(=O)CCc2nc3ccccc3c(=O)[nH]2)cc1C , please.
Reply: 0.74

---

- experimental-target: Poly [ADP-ribose] polymerase 1 (Homo sapiens, UniProt P09874)
- Sequence (P09874 whole entry): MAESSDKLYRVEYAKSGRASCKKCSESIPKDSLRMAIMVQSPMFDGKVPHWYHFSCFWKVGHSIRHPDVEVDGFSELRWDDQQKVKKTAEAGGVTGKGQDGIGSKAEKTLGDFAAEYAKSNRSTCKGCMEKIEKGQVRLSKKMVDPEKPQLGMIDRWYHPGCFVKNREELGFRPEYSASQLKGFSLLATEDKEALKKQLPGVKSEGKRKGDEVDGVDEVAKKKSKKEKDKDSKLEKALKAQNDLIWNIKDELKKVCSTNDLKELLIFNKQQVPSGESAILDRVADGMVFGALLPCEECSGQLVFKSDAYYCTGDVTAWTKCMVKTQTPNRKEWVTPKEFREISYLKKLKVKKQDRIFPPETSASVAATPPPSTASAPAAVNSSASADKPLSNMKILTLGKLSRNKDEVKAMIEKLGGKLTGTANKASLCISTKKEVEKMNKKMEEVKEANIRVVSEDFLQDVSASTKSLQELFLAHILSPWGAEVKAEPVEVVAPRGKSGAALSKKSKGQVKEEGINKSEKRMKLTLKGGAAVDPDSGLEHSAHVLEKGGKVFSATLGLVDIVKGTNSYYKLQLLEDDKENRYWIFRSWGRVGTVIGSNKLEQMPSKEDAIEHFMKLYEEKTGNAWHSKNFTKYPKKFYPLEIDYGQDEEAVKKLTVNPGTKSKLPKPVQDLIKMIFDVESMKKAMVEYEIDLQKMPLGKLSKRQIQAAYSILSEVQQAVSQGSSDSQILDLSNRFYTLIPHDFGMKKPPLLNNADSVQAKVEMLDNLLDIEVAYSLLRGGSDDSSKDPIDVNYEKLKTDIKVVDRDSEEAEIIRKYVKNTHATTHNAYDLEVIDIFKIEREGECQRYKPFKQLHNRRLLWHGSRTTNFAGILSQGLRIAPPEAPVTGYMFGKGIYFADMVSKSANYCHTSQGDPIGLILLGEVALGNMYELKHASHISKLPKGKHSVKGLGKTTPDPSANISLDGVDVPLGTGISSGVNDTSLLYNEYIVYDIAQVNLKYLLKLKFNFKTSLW
Threshold 0.9 °C: ΔTm strictly smaller gives Fulfilled, otherwise Not fulfilled.

Task item: Given the entry O=C(CCc1nc2ccccc2c(=O)[nH]1)NC1CCCc2ccccc21 (stereo not given) , would its reported ΔTm be below 0.9 °C?
Reply: Not fulfilled

Task item: Same lookup for O=C(/C=C/c1nc2ccccc2c(=O)[nH]1)N[C@H](CO)Cc1ccccc1 , please.
Reply: Fulfilled

Task item: Same lookup for C[C@@H](NC(=O)CCCc1nc2ccccc2c(=O)[nH]1)c1ccccc1 , please.
Reply: Not fulfilled

---

- System: Poly [ADP-ribose] polymerase 14, ARTD8/PARP14 (Homo sapiens)
ΔTm of -0.07 °C or higher: 1.0. Under -0.07 °C: 0.0.

Reference set (3 entries):
compound: O=C(/C=C/c1nc2ccccc2c(=O)[nH]1)N[C@H](CO)Cc1ccccc1
answer-label: 0.0

compound: Cc1ccc([C@H](C)NC(=O)CCc2nc3ccccc3c(=O)[nH]2)cc1C
answer-label: 0.0

compound: Cc1ccc(C)c(C(C)NC(=O)CCc2nc3ccccc3c(=O)[nH]2)c1 (racemic)
answer-label: 1.0

Task item: Does ΔTm meet or surpass -0.07 °C for O=C(CCc1nc2ccccc2c(=O)[nH]1)N[C@@H]1CCc2ccccc21 ?
Reply: 1.0

Task item: Same lookup for O=C(CCc1nc2cc(Cl)ccc2c(=O)[nH]1)NC(c1ccccc1)c1ccccc1 , please.
Reply: 1.0

Task item: Same lookup for O=C(CCc1nc2ccccc2c(=O)[nH]1)NCc1ccccc1 , please.
Reply: 0.0

---

- experimental-target: Protein mono-ADP-ribosyltransferase PARP3 (Homo sapiens)
Threshold 3 °C: ΔTm strictly smaller gives rule met, otherwise rule not met.

Reference set (2 entries):
molecule: C[C@H](NC(=O)NCc1nc2ccccc2c(=O)[nH]1)c1ccccc1
answer-label: rule not met
//
molecule: O=C(CCc1nc2cc(Cl)ccc2c(=O)[nH]1)NC(c1ccccc1)c1ccccc1
answer-label: rule met

Task item: Given the entry C[C@H](NC(=O)CCc1nc2ccccc2c(=O)[nH]1)c1cccc(Cl)c1 , would its reported ΔTm be below 3 °C?
Reply: rule met

Task item: Same lookup for C[C@H](NC(=O)Cc1nc2ccccc2c(=O)[nH]1)c1ccccc1 , please.
Reply: rule met

---

Below is a list of entries, each paired with its recorded ΔTm value.
- Organism: Homo sapiens
- test: Binding affinity to […] (unknown origin) assessed as change in melting temperature by thermal stabilization assay
Enter your answer as a number in °C; do not include the unit.

compound: O=C(CCc1nc2cc(Cl)ccc2c(=O)[nH]1)N[C@H](CO)c1ccccc1
value-units: °C
reading: 0.36
//
compound: O=C(CCc1nc2ccccc2c(=O)[nH]1)NCCc1ccccc1
value-units: °C
reading: 0.49
//
compound: O=C(CCc1nc2ccccc2c(=O)[nH]1)NC(c1ccc(Cl)cc1)C1CC1 (racemic)
value-units: °C
reading: 0.52
//
compound: O=C(CCc1nc2ccccc2c(=O)[nH]1)N[C@H](CO)Cc1ccccc1
value-units: °C
reading: 0.6

# next compound below
Task item: Can you look up the measured ΔTm of O=C(CCc1nc2ccccc2c(=O)[nH]1)NCc1ccc([N+](=O)[O-])cc1 for me?
Reply: 0.97

---

Below is a list of entries, each paired with its recorded ΔTm value.
- experimental-target: Poly [ADP-ribose] polymerase 2 (Homo sapiens) (UniProt Q9UGN5)
- Sequence (Q9UGN5 whole entry): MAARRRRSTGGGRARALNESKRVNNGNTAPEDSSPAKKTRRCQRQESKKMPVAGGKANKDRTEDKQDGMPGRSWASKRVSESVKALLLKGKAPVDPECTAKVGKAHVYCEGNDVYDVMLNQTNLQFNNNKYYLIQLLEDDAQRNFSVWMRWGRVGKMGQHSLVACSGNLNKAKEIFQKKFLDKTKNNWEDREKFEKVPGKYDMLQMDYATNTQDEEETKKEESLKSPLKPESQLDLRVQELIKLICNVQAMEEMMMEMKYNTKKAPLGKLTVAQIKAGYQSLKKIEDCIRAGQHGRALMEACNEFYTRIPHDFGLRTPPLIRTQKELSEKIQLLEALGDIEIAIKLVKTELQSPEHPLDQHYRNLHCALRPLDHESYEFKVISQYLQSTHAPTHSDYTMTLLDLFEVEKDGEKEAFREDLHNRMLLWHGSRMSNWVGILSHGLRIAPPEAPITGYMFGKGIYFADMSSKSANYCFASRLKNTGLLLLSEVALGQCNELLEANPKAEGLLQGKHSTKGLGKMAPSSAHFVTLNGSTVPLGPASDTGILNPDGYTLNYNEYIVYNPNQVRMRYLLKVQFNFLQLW
Enter your answer as a number in °C; do not include the unit.

Below are worked cases with known answers.
molecule: O=C(CCCc1nc2ccccc2c(=O)[nH]1)N[C@@H]1CCc2ccccc21
experimental-target: Poly [ADP-ribose] polymerase 2 (Homo sapiens) (UniProt Q9UGN5)
ΔTm / °C: 2.29
//
molecule: C[C@H](NC(=O)CCc1nc2ccccc2c(=O)[nH]1)c1cccc(Cl)c1
experimental-target: Poly [ADP-ribose] polymerase 2 (Homo sapiens) (UniProt Q9UGN5)
ΔTm / °C: -0.48
//
molecule: O=C(CCc1nc(O)c2ccccc2n1)NCc1ccccn1
experimental-target: Poly [ADP-ribose] polymerase 2 (Homo sapiens) (UniProt Q9UGN5)
ΔTm / °C: 1.48
//
molecule: CC(C)(C)CC(NC(=O)CCc1nc2ccccc2c(=O)[nH]1)c1ccccc1 (racemic)
experimental-target: Poly [ADP-ribose] polymerase 2 (Homo sapiens) (UniProt Q9UGN5)
ΔTm / °C: 0.74
//
molecule: C[C@H](NC(=O)NCc1nc2ccccc2c(=O)[nH]1)c1ccccc1
experimental-target: Poly [ADP-ribose] polymerase 2 (Homo sapiens) (UniProt Q9UGN5)
ΔTm / °C: 0.33
//
molecule: O=C(CCc1nc2cc(Cl)ccc2c(=O)[nH]1)N[C@H](CO)c1ccccc1
experimental-target: Poly [ADP-ribose] polymerase 2 (Homo sapiens) (UniProt Q9UGN5)
ΔTm / °C: 0.98
//
molecule: C[C@@H](NC(=O)CCc1nc2cc(Cl)ccc2c(=O)[nH]1)c1ccccc1
experimental-target: Poly [ADP-ribose] polymerase 2 (Homo sapiens) (UniProt Q9UGN5)
ΔTm / °C: 1.28
//
molecule: C[C@H](NC(=O)/C=C/c1nc2ccccc2c(=O)[nH]1)c1ccccc1
experimental-target: Poly [ADP-ribose] polymerase 2 (Homo sapiens) (UniProt Q9UGN5)
ΔTm / °C: -0.67
//
molecule: Cc1ccc(C)c(C(C)NC(=O)CCc2nc3ccccc3c(=O)[nH]2)c1 (racemic)
experimental-target: Poly [ADP-ribose] polymerase 2 (Homo sapiens) (UniProt Q9UGN5)
ΔTm / °C: 0.87

# next molecule below
Task item: Can you look up the measured ΔTm of O=C(/C=C/c1nc2ccccc2c(=O)[nH]1)N[C@H](CO)Cc1ccccc1 for me?
Reply: -0.17

---

Measurement record for Poly [ADP-ribose] polymerase 1 (Homo sapiens, UniProt P09874); quantity recorded: ΔTm.
In your response, put the unit directly after the numeric value.

compound: O=C(CCc1nc2ccccc2c(=O)[nH]1)NCc1ccccc1Cl
ΔTm: 1.85 °C
//
compound: O=C(CCCc1nc2ccccc2c(=O)[nH]1)N[C@H](CO)c1ccccc1
ΔTm: 2.9 °C
//
compound: C[C@H](NC(=O)NCc1nc2ccccc2c(=O)[nH]1)c1ccccc1
ΔTm: 0.88 °C
//
compound: Cc1ccc([C@H](C)NC(=O)CCc2nc3ccccc3c(=O)[nH]2)cc1C
ΔTm: 0.22 °C
//
compound: O=C(CCc1nc2cc(Cl)ccc2c(=O)[nH]1)N[C@H](CO)c1ccccc1
ΔTm: 0.76 °C

Task item: Can you look up the measured ΔTm of O=C(CCCc1nc2ccccc2c(=O)[nH]1)N[C@H]1CCc2ccccc21 for me?
Reply: 1.88 °C

Task item: Same lookup for O=C(CCc1nc2ccccc2c(=O)[nH]1)N[C@H](CO)c1ccccc1 , please.
Reply: 2.83 °C

Task item: Same lookup for C[C@@H](NC(=O)Cc1nc2ccccc2c(=O)[nH]1)c1ccccc1 , please.
Reply: 0.37 °C

Task item: Same lookup for CON(C)C(=O)[C@H](Cc1ccccc1)NC(=O)CCc1nc2ccccc2c(=O)[nH]1 , please.
Reply: 1.37 °C

Task item: Same lookup for O=C(NCc1ccccc1)NCc1nc2ccccc2c(=O)[nH]1 , please.
Reply: 0.65 °C

Task item: Same lookup for C[C@H](NC(=O)Cc1nc2ccccc2c(=O)[nH]1)c1ccccc1 , please.
Reply: 0.31 °C

Task item: Same lookup for C[C@H](NC(=O)CCc1nc2ccccc2c(=O)[nH]1)c1ccc(Cl)cc1 , please.
Reply: 0.04 °C

Task item: Same lookup for O=C(CCc1nc2cc(Cl)ccc2c(=O)[nH]1)NC(c1ccccc1)c1ccccc1 , please.
Reply: 0.11 °C

Task item: Same lookup for O=C(CCc1nc2ccccc2c(=O)[nH]1)NCc1ccccc1O , please.
Reply: 2.79 °C

Task item: Same lookup for O=C(CCc1nc2ccccc2c(=O)[nH]1)NCc1ccccc1 , please.
Reply: 2.16 °C

Task item: Same lookup for O=C(CCCc1nc2ccccc2c(=O)[nH]1)NC(c1ccccc1)c1ccccc1 , please.
Reply: 0.44 °C
